SYSTEM_TESTED: T1, cynomolgus soluble urokinase plasminogen activator receptor (suPAR) (cynomolgus, UniProt Q9GK78 23-303, limits assumed)
T1 construct: Column head says only 'cynomologus'; also called cynomolgus suPAR; cynomolgus uPAR
ASSAY_NAME: BLI (Octet) off-rate screen of scFv clones
ASSAY_METRIC: koff (s⁻¹)
The reply should be a number in s⁻¹, with the unit left off.

koff lookup needed for suPAR_DB02_C11 (scFv, V domains shown, scFv clone from phage display) VH: QVQLVQSGAEVKKPGASVKVSCKASGYNFKDYYIHWVRQAPGQGLEWMGWIDHENGSTIYAQKFQGRVTMTRDTSTSTVYMELSSLRSEDTAVYYCARGYDVDWFVYWGQGTLVTVSS VL: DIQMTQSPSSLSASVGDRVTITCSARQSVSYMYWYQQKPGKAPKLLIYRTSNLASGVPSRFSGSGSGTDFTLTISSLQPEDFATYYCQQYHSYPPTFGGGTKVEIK , thanks. 0.0004

koff lookup needed for suPAR_DB02_E11 (scFv, V domains shown, scFv clone from phage display) VH: QVQLVQSGAEVKKPGASVKVSCKASGGTFSNYYMHWVRQAPGQGLEWMGWIDHENGNTIYDQKFQGRVTMTRDTSTSTVYMELSSLRSEDTAVYYCARGYDVDWFVYWGQGTLVTVSS VL: DIQMTQSPSSLSASVGDRVTITCRARQSVSYMYWYQQKPGKAPKLLIYRTSSLASGVPSRFSGSGSGTDFTLTISSLQPEDFATYYCQQYHSYPPTFGGGTKVEIK , thanks. 0.000376

koff lookup needed for suPAR_DB02_D11 (scFv, V domains shown, scFv clone from phage display) VH: QVQLVQSGAEVKKPGASVKVSCKASGFNIKDYYIHWVRQAPGQGLEWMGWIDPENGNTIYDQKFQGRVTMTRDTSTSTVYMELSSLRSEDTAVYYCARGYDVDWFVYWGQGTLVTVSS VL: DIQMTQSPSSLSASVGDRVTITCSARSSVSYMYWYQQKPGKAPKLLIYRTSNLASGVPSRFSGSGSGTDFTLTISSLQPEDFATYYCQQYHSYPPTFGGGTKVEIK , thanks. 0.000265
